Taken from patent US20250179000A1.

- tested target: Rat mGlu3 (Rattus norvegicus, UniProt P31422)
- Sequence (P31422 23-879): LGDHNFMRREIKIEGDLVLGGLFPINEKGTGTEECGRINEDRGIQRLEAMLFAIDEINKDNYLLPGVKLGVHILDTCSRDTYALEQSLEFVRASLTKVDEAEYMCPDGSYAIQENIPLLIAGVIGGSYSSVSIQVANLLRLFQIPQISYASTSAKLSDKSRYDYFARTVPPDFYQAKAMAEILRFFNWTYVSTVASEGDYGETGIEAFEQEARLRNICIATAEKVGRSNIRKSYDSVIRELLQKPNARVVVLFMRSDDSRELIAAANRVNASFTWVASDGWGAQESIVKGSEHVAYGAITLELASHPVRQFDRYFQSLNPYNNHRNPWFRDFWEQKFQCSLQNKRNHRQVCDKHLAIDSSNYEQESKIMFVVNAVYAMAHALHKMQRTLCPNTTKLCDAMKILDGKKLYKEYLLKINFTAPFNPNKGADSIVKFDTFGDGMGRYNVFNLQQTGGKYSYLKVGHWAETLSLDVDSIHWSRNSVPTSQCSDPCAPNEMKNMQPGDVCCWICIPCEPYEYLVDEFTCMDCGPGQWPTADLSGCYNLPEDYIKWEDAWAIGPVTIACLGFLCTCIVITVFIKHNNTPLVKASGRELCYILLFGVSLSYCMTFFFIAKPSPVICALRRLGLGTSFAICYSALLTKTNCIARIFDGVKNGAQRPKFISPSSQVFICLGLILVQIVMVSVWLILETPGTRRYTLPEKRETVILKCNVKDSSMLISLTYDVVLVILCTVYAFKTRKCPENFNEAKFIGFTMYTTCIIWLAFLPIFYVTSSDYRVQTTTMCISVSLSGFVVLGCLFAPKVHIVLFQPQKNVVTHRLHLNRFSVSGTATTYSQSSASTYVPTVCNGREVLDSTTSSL
- experiment summary: mGlu receptor in vitro assay (thallium flux through GIRK channels / calcium assay), rat mGlu3
- experimental conditions: PAM potency with EC20 glutamate
Measured EC50 by item
readout label: EC50 (nM)

* Cc1c(OCc2cccc(-c3cccc(C(=O)O)c3)c2)ccc(C(=O)Cc2ccccc2)c1O | 1030
* COc1ccc(C(=O)O)cc1OCCCOc1ccc(C(=O)CC(C)(C)C)c(O)c1C | 234
* COc1ccc(-c2cnc(COc3ccc(C(=O)CC(C)(C)C)c(O)c3C)cn2)cc1C(=O)O | 104
* Cc1c(OCc2cnc(-c3cccc(C(=O)NC4CC4)c3)cn2)ccc(C(=O)CC(C)(C)C)c1O | 333
* Cc1c(OCc2ccnc(-c3cccc(C(=O)O)c3)n2)ccc(C(=O)CC(C)(C)C)c1O | 258
* COc1ccc(C(=O)O)cc1OCCC(C)COc1ccc(C(=O)CC(C)(C)C)c(O)c1C (centres unmarked) | 197
* COc1c(C(=O)O)cccc1-c1cccc(COc2ccc(C(=O)CC(C)(C)C)c(O)c2C)c1 | 493
* Cc1c(OCCCCOc2ccc(C(=O)O)c(F)c2)ccc(C(=O)CC(C)C)c1O | 732
* Cc1c(OCc2cnc(-c3cccc(NC(=O)NS(C)(=O)=O)c3)cn2)ccc(C(=O)CC(C)(C)C)c1O | 4670
* CCCC(=O)c1ccc(OCc2cnc(-c3cccc(C(=O)O)c3OC)cn2)c(C)c1O | 481
* Cc1c(OCc2cnc(-c3cccc(-c4noc(=O)[nH]4)c3)cn2)ccc(C(=O)CC(C)(C)C)c1O | 1690
* CCCC(=O)c1ccc(OCCCCCOc2ccc(C(=O)O)cc2OC)c(C)c1O | 2300
* COc1ccc(C(=O)O)cc1OCCOCCOc1ccc(C(=O)CC(C)(C)C)c(O)c1C | 52
* Cc1c(OCCOCCOc2ccc(C(=O)CC(C)(C)C)c(O)c2C)cccc1C(=O)O | 491
* CCCC(=O)c1ccc(OCCCCCOc2ccc(C(=O)O)c(F)c2)c(C)c1O | 1090
